Just for reference, paper PMC6222357 is where these values come from.

# Assay Explanation: Stability of the analytes in beagle plasma QC samples under different storage conditions
# Assay type: physicochemical, beagle dog
# Experimental Context: low QC, 12 h after sample preparation at 4 °C, n = 6
For each entry below, report its Stability (% RE) Post-Preparative value.
Respond numerically; units are % RE and should not be typed.

Query: Entry under review: C[n+]1cc2c3c(ccc2c2ccc4cc5c(cc4c21)OCO5)OCO3 . Reported Stability (% RE) Post-Preparative?
Result: 7.77

Query: Likewise for COc1cc2c(cc1OC)[C@@H]1Cc3ccc(OC)c(OC)c3CN1CC2 [Terahydropalmatine, tetrahydropalmatine] ?
Result: 10.82

Query: Likewise for COc1ccc2cc3[n+](cc2c1OC)CCc1cc2c(cc1-3)OCO2 ?
Result: 11.84

Query: Likewise for COc1cc2c(cc1O)CC[n+]1cc3c(OC)c(OC)ccc3cc1-2 ?
Result: 6.63

###

# Assay Explanation: Stability of the analytes in beagle plasma QC samples under different storage conditions
# Type: physicochemical, beagle dog
# Experimental Context: low QC in beagle plasma, three freeze (−80 °C)-thaw cycles, n = 6
Lab note: compare Stability (% RE) Freeze-Thaw with 10 % RE, writing 1.0 if less and 0.0 if equal or more.

Query: Please let me know if COc1cc2c(cc1OC)[C@@H]1Cc3ccc(OC)c(OC)c3CN1CC2 [Terahydropalmatine, tetrahydropalmatine] shows Stability (% RE) Freeze-Thaw below 10 % RE.
Result: 0.0

Query: Likewise for COc1ccc2cc3[n+](cc2c1OC)CCc1cc2c(cc1-3)OCO2 ?
Result: 0.0

Query: Likewise for CN1Cc2c(ccc3c2OCO3)[C@@]2(C)[C@@H](O)Cc3cc4c(cc3[C@@H]12)OCO4 ?
Result: 1.0

Query: Likewise for CC(=O)O[C@H]1Cc2cc3c(cc2[C@H]2N(C)Cc4c(ccc5c4OCO5)[C@@]12C)OCO3 ?
Result: 1.0

Query: Likewise for COc1cc2c(cc1O)-c1cc3ccc(OC)c(OC)c3c[n+]1CC2 ?
Result: 0.0

Query: Likewise for C[n+]1cc2c3c(ccc2c2ccc4cc5c(cc4c21)OCO5)OCO3 ?
Result: 0.0

Query: Likewise for COc1cc2c(cc1O)CC[n+]1cc3c(OC)c(OC)ccc3cc1-2 ?
Result: 0.0

###

# Assay Explanation: Stability of the analytes in beagle plasma QC samples under different storage conditions
# Type: physicochemical, beagle dog
# Experimental Context: high QC, 12 h after sample preparation at 4 °C, n = 6
For each entry below, report its Stability (% RE) Post-Preparative value.
Respond numerically; units are % RE and should not be typed.

Query: Entry under review: COc1cc2c(cc1O)-c1cc3ccc(OC)c(OC)c3c[n+]1CC2 . Reported Stability (% RE) Post-Preparative?
Result: 12.44

Query: Likewise for COc1ccc2cc3[n+](cc2c1O)CCc1cc2c(cc1-3)OCO2 ?
Result: 5.08

Query: Likewise for CC(=O)O[C@H]1Cc2cc3c(cc2[C@H]2N(C)Cc4c(ccc5c4OCO5)[C@@]12C)OCO3 ?
Result: 2.05

Query: Likewise for CN1Cc2c(ccc3c2OCO3)[C@@]2(C)[C@@H](O)Cc3cc4c(cc3[C@@H]12)OCO4 ?
Result: 5.40

Query: Likewise for COc1cc2c(cc1OC)-c1cc3ccc(OC)c(OC)c3c[n+]1CC2 ?
Result: −7.08
